# testTarget: 4'-phosphopantetheinyl transferase ffp (Bacillus subtilis)
# experimentDescription: qHTS Assay for Inhibitors of Bacillus subtilis Sfp phosphopantetheinyl transferase (PPTase);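 also: the enzyme is Sfp with the accession as filed and its product quenches rhodamine fluorescence; 0% = enzyme reaction without inhibitor and -100% = no enzyme wells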
# testConditions: Biochemical Sfp PPTase activity
The campaign covered roughly 310,000 compounds. About 11,000 (3.5%) were called active. About 4% were inconclusive and are not listed. This is one part of a sample in which actives are shown more often than they occur.
readoutKind: largest response in the series, negative = inhibition (%)
Value expressed in %; do not type the unit.

See these solved cases before continuing.
>  <compound>
CCN1C[C@]2(COC)C(O)C[C@H](OC)[C@@]34C5C[C@]6(O)C(OC)C(O)[C@](OC(C)=O)(C5C6OC(=O)c5ccccc5)C(C(OC)C23)C14 (stereo partly drawn)

>  <valueMeasured>
5.25

$$$$
>  <compound>
C[C@]12O[C@H](C[C@@]1(O)C(=O)O)n1c3ccccc3c3c4c(c5c6ccccc6n2c5c31)CNC4=O

>  <valueMeasured>
-2.27

$$$$
>  <compound>
CC(C)(C)c1ccc(OC(=O)N2CCCCC2)cc1

>  <valueMeasured>
-1.08

$$$$
>  <compound>
CCN1CC2C3CCC(C)(O3)C2C1 (stereo not drawn)

>  <valueMeasured>
13.8

$$$$
>  <compound>
CCC(C)C(=O)O[C@@H]1C[C@@]2(C)C(c3ccoc3)OC(=O)CC23OC2(C)O[C@@]14[C@@]1(C)C(CC(=O)OC)C5(C)CC1(O)C(O)(C5OC(=O)C1(C)OC1C)C(OC(C)=O)[C@@]34O2 (stereo partly drawn)

>  <valueMeasured>
3.31

$$$$

Lab request: please report largest response in the series, negative = inhibition under test system 4'-phosphopantetheinyl transferase ffp (Bacillus subtilis) for C[C@H]1CC[C@@]2(NC1)O[C@@H]1C[C@H]3[C@@H]4CC=C5C[C@@H](O)CC[C@]5(C)[C@@H]4CC[C@]3(C)[C@@H]1[C@@H]2C 7.1

Lab request: please report largest response in the series, negative = inhibition under test system 4'-phosphopantetheinyl transferase ffp (Bacillus subtilis) for O=P1(Oc2ccccc2)CC(O)C(O)C(COCc2ccccc2)O1 (stereo not drawn) -2.12

Lab request: please report largest response in the series, negative = inhibition under test system 4'-phosphopantetheinyl transferase ffp (Bacillus subtilis) for COc1cc(C(=S)N2CCOCC2)ccc1O 14.2

Lab request: please report largest response in the series, negative = inhibition under test system 4'-phosphopantetheinyl transferase ffp (Bacillus subtilis) for N#Cc1cc(Br)c(O)c(Br)c1 9.61

Lab request: please report largest response in the series, negative = inhibition under test system 4'-phosphopantetheinyl transferase ffp (Bacillus subtilis) for CC1=CC(=O)C2=C(C)C[C@H](O)[C@H]3[C@H](C)C(=O)O[C@@H]3C12 (stereo partly drawn) 33

Numbers sourced from PubChem BioAssay AID1490.
